Entries and their pEC50 values follow.
- study-target: UniProt:O14842
- assay-info: Agonist action on GPR40 of human origin (Ca2+ fluorescence, CHO cell strain stably expressing GPR40)
- condition-description: fluctuation of Ca2+ concentration
pEC50: −log10 of the molar value.
assay-readout: pEC50

>  <compound>
O=C1CC(c2ccc(O[C@@H]3CCc4c(Br)cccc43)cc2)CS(=O)(=O)N1 (some centres unmarked)

>  <assay-readout>
pEC50

>  <observed>
> 6.52

$$$$
>  <compound>
Cc1cc(OCCCS(C)(=O)=O)cc(C)c1-c1cccc(COc2ccc(N3CC(=O)NS3(=O)=O)cc2)c1

>  <assay-readout>
pEC50

>  <observed>
5.52 to 6.52

$$$$
>  <compound>
O=C1CC(c2ccc(O[C@@H]3CCc4c(Oc5ccccc5)cccc43)cc2)[S+]([O-])N1 (some centres unmarked)

>  <assay-readout>
pEC50

>  <observed>
> 6.52

$$$$
>  <compound>
Cc1cccc(C)c1-c1cccc(COc2ccc(N3CC(=O)NS3(=O)=O)cc2)c1

>  <assay-readout>
pEC50

>  <observed>
> 6.52

$$$$
>  <compound>
Cc1cccc(C)c1-c1cccc(COc2ccc(N3C(C)C(=O)NS3(=O)=O)cc2)c1 (centres unmarked)

>  <assay-readout>
pEC50

>  <observed>
5.52 to 6.52

$$$$
>  <compound>
Cc1cccc(C)c1-c1cccc(COc2ccc(C3CC(=O)NS(=O)(=O)C3)cc2)c1 (racemic)

>  <assay-readout>
pEC50

>  <observed>
> 6.52

$$$$
>  <compound>
O=C1CC(c2ccc(OC3COc4c3cccc4C(F)(F)F)cc2)[S+]([O-])N1 (centres unmarked)

>  <assay-readout>
pEC50

>  <observed>
5.52 to 6.52

$$$$
>  <compound>
Cc1cc(OCCCS(C)(=O)=O)cc(C)c1-c1cccc(COc2ccc(C3CC(=O)NS3(=O)=O)cc2)c1 (racemic)

>  <assay-readout>
pEC50

>  <observed>
> 6.52

$$$$

----------
- study-target: GPR40 of human origin (Homo sapiens)
- Construct: expressed in transfected cells
- Sequence (O14842 whole entry): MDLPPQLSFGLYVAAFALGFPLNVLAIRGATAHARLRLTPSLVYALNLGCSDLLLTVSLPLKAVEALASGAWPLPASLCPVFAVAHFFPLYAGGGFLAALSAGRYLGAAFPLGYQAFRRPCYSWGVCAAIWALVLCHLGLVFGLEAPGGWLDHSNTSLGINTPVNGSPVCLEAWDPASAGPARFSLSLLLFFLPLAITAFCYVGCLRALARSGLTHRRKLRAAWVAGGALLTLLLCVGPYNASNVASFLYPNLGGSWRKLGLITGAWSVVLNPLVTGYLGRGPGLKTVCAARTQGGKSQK
- assay-info: Agonist action on GPR40 of human origin (Ca2+ fluorescence, CHO cell strain stably expressing GPR40)
- Format: cell-based
- condition-description: fluctuation of Ca2+ concentration
pEC50: −log10 of the molar value.
Entries and their pEC50 values follow.
assay-readout: pEC50

>  <molecule>
Cc1cc(OCCC(C)(C)O)cc(C)c1-c1cccc(COc2ccc(C3CC(=O)N[S+]3[O-])cc2)c1 (stereo not shown)

>  <study-target>
GPR40 of human origin (Homo sapiens)

>  <assay-readout>
pEC50

>  <observed>
> 6.52

$$$$
>  <molecule>
Cc1cc(OCCCS(C)(=O)=O)cc(C)c1-c1cccc(COc2ccc(C3CC(=O)NS(=O)(=O)C3)cc2)c1 (stereo not shown)

>  <study-target>
GPR40 of human origin (Homo sapiens)

>  <assay-readout>
pEC50

>  <observed>
> 6.52

$$$$
>  <molecule>
Cc1nc(OCCC(C)(C)O)ccc1-c1cccc2c1CC[C@H]2Oc1ccc(C2CC(=O)N[S+]2[O-])cc1 (single isomer, unassigned)

>  <study-target>
GPR40 of human origin (Homo sapiens)

>  <assay-readout>
pEC50

>  <observed>
5.52 to 6.52

$$$$
>  <molecule>
CCOCCOc1cc(C)c(-c2cccc(COc3ccc(C4CC(=O)N[S+]4[O-])cc3)c2)c(C)c1F (stereo not shown)

>  <study-target>
GPR40 of human origin (Homo sapiens)

>  <assay-readout>
pEC50

>  <observed>
> 6.52

$$$$
>  <molecule>
Cc1cccc(C)c1-c1cccc(COc2ccc(C3CC(=O)NS(=O)(=O)N3)cc2)c1 (racemic)

>  <study-target>
GPR40 of human origin (Homo sapiens)

>  <assay-readout>
pEC50

>  <observed>
> 6.52

$$$$
>  <molecule>
Cc1cc(OCCC(C)(C)O)c(F)c(C)c1-c1cccc(COc2ccc(C3CC(=O)N[S+]3[O-])cc2)c1 (stereo not shown)

>  <study-target>
GPR40 of human origin (Homo sapiens)

>  <assay-readout>
pEC50

>  <observed>
> 6.52

$$$$
>  <molecule>
Cc1cc(OC[C@H](O)CO)cc(C)c1-c1cccc(COc2ccc(C3CC(=O)N[S+]3[O-])cc2)c1 (stereo partly shown)

>  <study-target>
GPR40 of human origin (Homo sapiens)

>  <assay-readout>
pEC50

>  <observed>
> 6.52

$$$$
